# study system: FAP (Homo sapiens (Human), UniProt Q12884)
# Sequence (Q12884 38-760): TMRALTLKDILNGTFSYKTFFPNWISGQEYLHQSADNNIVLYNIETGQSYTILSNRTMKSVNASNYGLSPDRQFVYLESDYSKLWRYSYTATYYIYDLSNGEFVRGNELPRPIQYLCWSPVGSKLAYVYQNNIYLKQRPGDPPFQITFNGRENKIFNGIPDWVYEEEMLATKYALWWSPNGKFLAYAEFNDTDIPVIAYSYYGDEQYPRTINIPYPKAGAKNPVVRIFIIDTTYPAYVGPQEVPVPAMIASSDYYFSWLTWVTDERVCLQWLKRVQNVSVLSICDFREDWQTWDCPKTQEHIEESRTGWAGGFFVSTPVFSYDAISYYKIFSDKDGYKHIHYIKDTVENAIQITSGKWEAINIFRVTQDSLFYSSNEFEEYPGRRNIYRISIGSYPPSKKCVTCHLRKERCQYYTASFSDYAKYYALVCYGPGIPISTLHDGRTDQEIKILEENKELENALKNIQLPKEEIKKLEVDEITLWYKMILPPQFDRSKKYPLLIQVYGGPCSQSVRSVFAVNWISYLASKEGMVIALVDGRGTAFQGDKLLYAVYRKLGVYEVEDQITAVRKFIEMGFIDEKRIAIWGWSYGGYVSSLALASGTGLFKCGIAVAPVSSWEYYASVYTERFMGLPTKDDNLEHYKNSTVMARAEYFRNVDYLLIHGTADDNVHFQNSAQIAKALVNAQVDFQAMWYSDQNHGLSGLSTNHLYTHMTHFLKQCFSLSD
# protocol summary: hFAP inhibition assay
# Assay type: biochemical
# experimental setup: hFAP […], Ala-Pro-AMC 20 μM; n = 1 or geometric mean n = 2-3
measurement name: IC50 (pM)

{"molecule": "C[C@@H]1CCN(c2ccc3nccc(C(=O)NCC(=O)N4CSC[C@H]4C#N)c3c2)CCO1 [Example 61]", "measurement name": "IC50", "test value": 210}

(A) CC[C@H]1COCCN1c1ccc2nccc(C(=O)NCC(=O)N3CSC[C@H]3C#N)c2c1 [Example 106]
(B) C[C@@H]1COC[C@H](C)N1c1ccc2nccc(C(=O)NCC(=O)N3CSC[C@H]3C#N)c2c1 [Example 90]
stdin: Field: lower IC50 | Options: A / B Answer format: the label of the selected item.
stdout: A
(A: 230 pM, B: 750 pM)

----------
# study system: FAP (Homo sapiens (Human), UniProt Q12884)
# protocol summary: hFAP inhibition assay
# Format: biochemical
# experimental setup: hFAP 0.24 nM, Ala-Pro-AMC 20 μM; n = 1 or geometric mean n = 2-3
pIC50: −log10 of the molar value.
measurement name: pIC50

{"compound": "N#C[C@@H]1CSCN1C(=O)CNC(=O)c1ccnc2ccc(N3C[C@@H]4CC[C@H]3C4)cc12 (mixture of isomers) [Example 210]", "pIC50": 9.36}
{"compound": "CO[C@H]1CCCN(c2ccc3nccc(C(=O)NCC(=O)N4CSC[C@H]4C#N)c3c2)C1 (mixture of isomers) [Example 41]", "pIC50": 9.48}
{"compound": "N#C[C@@H]1CSCN1C(=O)CNC(=O)c1ccnc2ccc(N3CCC[C@H](F)C3)cc12 (mixture of isomers) [Example 40]", "pIC50": 9.62}

(A) C[C@H]1CC(F)(F)CCN1c1ccc2nccc(C(=O)NCC(=O)N3CSC[C@H]3C#N)c2c1 (mixture of isomers) [Example 44]
(B) N#C[C@@H]1CSCN1C(=O)CNC(=O)c1ccnc2ccc(-c3ccnn3[C@H]3CCCCO3)cc12 (mixture of isomers) [Example 176]
stdin: Out of A and B , name the one with the higher pIC50. Answer format: the label of the selected item.
stdout: A
(A: 9.66, B: 9.27)

----------
Heads up, these compounds all have IC50 values measured for Prolyl endopeptidase, Prolyl Oligopeptidase (hPREP) (Homo sapiens (Human)).
measurement name: IC50 (nM)

{"compound": "N#C[C@@H]1CSCN1C(=O)CNC(=O)c1ccnc2ccc(N3CC4(CC4)C[C@@H]3CF)cc12 [Example 58]", "IC50 (nM)": 180}

(a) C[C@@H]1CN(c2ccc3nccc(C(=O)NCC(=O)N4CSC[C@H]4C#N)c3c2)C[C@H]1C (single isomer, unassigned) [Example 226]
(b) CC1(F)CCN(c2ccc3nccc(C(=O)NCC(=O)N4CSC[C@H]4C#N)c3c2)CC1 [Example 34]
stdin: Field: lower IC50 | Options: a / b Answer format: the label of the selected item.
stdout: b

----------
# protocol summary: in vitro
# experimental setup: human, Caco-2
measurement name: efflux ratio
Write the value as a bare number.

stdin: Which efflux ratio value belongs to N#C[C@@H]1CSCN1C(=O)CNC(=O)c1ccnc2ccc(N3CC4CC(C3)O4)cc12 ?
stdout: 29

----------
# study system: hFAP (M39-A757) (Homo sapiens (Human))
# Sequence (Q12884 39-757): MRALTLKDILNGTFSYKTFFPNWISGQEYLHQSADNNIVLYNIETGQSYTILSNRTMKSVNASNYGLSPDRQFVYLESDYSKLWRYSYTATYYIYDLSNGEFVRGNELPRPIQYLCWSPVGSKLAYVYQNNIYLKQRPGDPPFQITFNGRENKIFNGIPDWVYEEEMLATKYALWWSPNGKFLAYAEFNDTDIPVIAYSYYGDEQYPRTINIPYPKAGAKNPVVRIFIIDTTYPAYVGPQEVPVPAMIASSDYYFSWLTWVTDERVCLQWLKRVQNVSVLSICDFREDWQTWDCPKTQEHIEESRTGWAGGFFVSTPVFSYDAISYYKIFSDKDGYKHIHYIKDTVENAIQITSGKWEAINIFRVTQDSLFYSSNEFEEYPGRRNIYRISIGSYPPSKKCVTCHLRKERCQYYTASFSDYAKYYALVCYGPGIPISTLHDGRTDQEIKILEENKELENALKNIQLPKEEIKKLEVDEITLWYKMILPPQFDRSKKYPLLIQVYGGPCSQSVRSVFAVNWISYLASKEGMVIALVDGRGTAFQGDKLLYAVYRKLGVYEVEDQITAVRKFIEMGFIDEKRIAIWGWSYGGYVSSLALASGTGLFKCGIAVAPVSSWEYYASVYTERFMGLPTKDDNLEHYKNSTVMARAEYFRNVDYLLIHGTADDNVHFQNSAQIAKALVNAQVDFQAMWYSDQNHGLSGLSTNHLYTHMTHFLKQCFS
# protocol summary: hFAP binding assay (surface plasmon resonance)
# experimental setup: SPR, 20° C., single cycle kinetics
measurement name: hFAP Binding assay k(off) (s⁻¹)

{"compound": "N#C[C@@H]1CSCN1C(=O)CNC(=O)c1ccnc2ccc(-c3cnc4n3CCCC4)cc12", "hFAP Binding assay k(off) [s⁻¹]": 0.00012}
{"compound": "N#C[C@@H]1CSCN1C(=O)CNC(=O)c1ccnc2ccc(N3CC(F)(CF)C3)cc12", "hFAP Binding assay k(off) [s⁻¹]": 0.00012}
{"compound": "N#C[C@@H]1CSCN1C(=O)CNC(=O)c1ccnc2ccc(N3CCCC[C@H]3CF)cc12", "hFAP Binding assay k(off) [s⁻¹]": 0.00018}
{"compound": "CC1(C)CCN1c1ccc2nccc(C(=O)NCC(=O)N3CSC[C@H]3C#N)c2c1", "hFAP Binding assay k(off) [s⁻¹]": 0.00012}
{"compound": "N#C[C@@H]1CSCN1C(=O)CNC(=O)c1ccnc2ccc(N3CC4C(C3)C4(F)F)cc12 (stereo partly shown)", "hFAP Binding assay k(off) [s⁻¹]": 0.000074}

(I) N#C[C@@H]1CSCN1C(=O)CNC(=O)c1ccnc2ccc(N3CCOC[C@@H]3C(F)(F)F)cc12 (single isomer, unassigned) [Example 85]
(II) C[C@@H]1OCCN(c2ccc3nccc(C(=O)NCC(=O)N4CSC[C@H]4C#N)c3c2)[C@H]1C
stdin: Field: lower hFAP Binding assay k(off) | Options: I / II Answer format: the label of the selected item.
stdout: II

Recorded values, source patent US20230312550A1.
